We begin with a simple list: items and their reported EC50.
- PROCEDURE_SUMMARY: Effect on Wnt signaling pathway in human SW480 cells harbouring TCF/LEF luciferase reporter gene and SP5-Luc reporter gene incubated for 36 to 48 hrs by luminescence assay
- Format: cell-based

- STRUCTURE: "Fc1cccc(-c2cncc3[nH]c(-c4n[nH]c5ccc(-c6cn[nH]c6)nc45)nc23)c1"
  READOUT_TYPE: "EC50"
  TEST_VALUE: "> 10 µM"
- STRUCTURE: "CCCC(=O)Nc1cncc(-c2cc3c(-c4cc5c(-c6cc(F)cc(NCCN(C)C)c6)ccnc5[nH]4)n[nH]c3cn2)c1"
  READOUT_TYPE: "EC50"
  TEST_VALUE: "> 10 µM"

Shifting focus to the molecule that follows.
[ask] Quote EC50 reported for "Cn1cc(-c2cnc3[nH]nc(-c4cc5cccnc5[nH]4)c3c2)cn1" please.
[reply] > 10 µM

* * *

- SYSTEM_UNDER_TEST: Dual specificity protein kinase CLK3 (Homo sapiens)
- PROCEDURE_SUMMARY: Inhibition of recombinant CLK3 (unknown origin) using Ser/Thr 18 peptide as substrate incubated for 1 hr in presence of ATP by FRET assay
pEC50: −log10 of the molar value.
The entries below are paired with their reported pEC50.

[ask] Give reported pEC50 value for "Cn1cc(-c2cnc3[nH]nc(-c4cc5cccnc5[nH]4)c3c2)cn1"
[reply] < 5.00

[ask] Give pEC50 for the following compound: "CN1CCC(C(=O)Nc2cc3cc(-c4cnsc4)cnc3cn2)CC1"
[reply] < 5.00

[ask] Give the value of pEC50 reported for the following: "CC(F)(F)CN1CCC(C(=O)Nc2cc3cc(-c4cnco4)cnc3cn2)CC1"
[reply] < 5.00

* * *

- PROCEDURE_SUMMARY: Effect on Wnt signaling pathway in human SW480 cells harbouring TCF/LEF luciferase reporter gene and SP5-Luc reporter gene incubated for 36 to 48 hrs by luminescence assay
- Format: cell-based
READOUT_TYPE: EC50 (nM)

- STRUCTURE: "Cc1ncc(C(=O)Nc2cc3cc(-c4cnc(C)n4C)ccc3cn2)s1"
  READOUT_TYPE: "EC50"
  UNIT_TEXT: "nM"
  TEST_VALUE: 102
- STRUCTURE: "c1cnc2cc(-c3n[nH]c4ccc(-c5cncc(CN6CCCCC6)c5)cc34)[nH]c2c1"
  READOUT_TYPE: "EC50"
  UNIT_TEXT: "nM"
  TEST_VALUE: 165
- STRUCTURE: "Fc1cccc(-c2cncc3[nH]c(-c4n[nH]c5ncc(-c6cccnc6)cc45)nc23)c1"
  READOUT_TYPE: "EC50"
  UNIT_TEXT: "nM"
  TEST_VALUE: 6

I = CC(C)Oc1ccc(NC(=O)c2n[nH]c3ccc(-c4cncc(CN5CCCCC5)c4)cc23)cn1
II = CN1CCN(c2ccc(NC(=O)c3n[nH]c4ccc(-c5cncc(NC(=O)c6c(F)cccc6F)c5)cc34)cn2)CC1
[ask] Please state the entry with greater EC50 among I and II . Answer format: the label of the selected item.
[reply] II

P = O=C(Nc1cncc(-c2cnc3[nH]nc(-c4cc5c(N6CCCCC6)nccc5[nH]4)c3c2)c1)C1CC1
Q = O=C(Nc1cncc(-c2ccc3[nH]nc(-c4nc5c(-c6ccc(Cl)s6)cncc5[nH]4)c3n2)c1)C1CCC1
[ask] // which entry reports the smaller EC50, P or Q ? Provide the label of your selected option as the answer.
[reply] Q
(Q: 800 nM, P: 3850 nM)

* * *

- SYSTEM_UNDER_TEST: Dual specificity tyrosine-phosphorylation-regulated kinase 1A (Homo sapiens)
- PROCEDURE_SUMMARY: Inhibition of recombinant DYRK1A (unknown origin) using Ser/Thr 18 peptide as substrate incubated for 1 hr in presence of ATP by FRET assay
pEC50: −log10 of the molar value.
READOUT_TYPE: pEC50

- STRUCTURE: "CN1CCN(c2nccc3[nH]c(-c4n[nH]c5ncc(-c6cncc(NC(=O)C7CCCC7)c6)cc45)cc23)CC1"
  READOUT_TYPE: "pEC50"
  TEST_VALUE: 8.15
- STRUCTURE: "CCCCC(=O)Nc1cncc(-c2cc3c(-c4cc5cnccc5[nH]4)n[nH]c3cn2)c1"
  READOUT_TYPE: "pEC50"
  TEST_VALUE: 8.70
- STRUCTURE: "CCCCC(=O)Nc1cncc(-c2cc3c(-c4cc5c(-c6cc(F)cc(CNS(C)(=O)=O)c6)nccc5[nH]4)n[nH]c3cn2)c1"
  READOUT_TYPE: "pEC50"
  TEST_VALUE: 7.21
- STRUCTURE: "CN(C)CCN(C)c1ccc(NC(=O)c2n[nH]c3ccc(-c4cncc(CN5CCCCC5)c4)cc23)cn1"
  READOUT_TYPE: "pEC50"
  TEST_VALUE: 9.00
- STRUCTURE: "CS(=O)(=O)NCc1cc(F)cc(-c2nccc3[nH]c(-c4n[nH]c5ccc(-c6cncnc6)cc45)nc23)c1"
  READOUT_TYPE: "pEC50"
  TEST_VALUE: 7.02

a = c1cncc(-c2ccc3[nH]nc(-c4cc5c(-c6cccnc6)ccnc5[nH]4)c3c2)c1
b = c1ccc(CNCc2cncc(-c3ccc4[nH]nc(-c5cc6c(-c7cccs7)cncc6[nH]5)c4c3)c2)cc1
c = Fc1cccc(-c2ccnc3[nH]c(-c4n[nH]c5ncc(-c6cn[nH]c6)cc45)nc23)c1
[ask] # desc sort on pEC50 across 3 compounds Reply format: the labels, ordered as requested.
[reply] c, a, b
(c: 7.80, a: 7.47, b: 7.20)

* * *

- SYSTEM_UNDER_TEST: UniProt:Q13627
- PROCEDURE_SUMMARY: Inhibition of recombinant DYRK1A (unknown origin) using Ser/Thr 18 peptide as substrate incubated for 1 hr in presence of ATP by FRET assay
READOUT_TYPE: EC50 (nM)

- STRUCTURE: "CC(C)C(=O)Nc1cncc(-c2cc3c(-c4cc5c(N6CCN(C)CC6)cccc5[nH]4)n[nH]c3cn2)c1"
  SYSTEM_UNDER_TEST: "UniProt:Q13627"
  UNIT_TEXT: "nM"
  EC50: 26
- STRUCTURE: "FC1(F)CCN(Cc2cncc(-c3ccc4[nH]nc(-c5cc6c(N7CCCCC7)cccc6[nH]5)c4c3)c2)C1"
  SYSTEM_UNDER_TEST: "UniProt:Q13627"
  UNIT_TEXT: "nM"
  EC50: 22
- STRUCTURE: "CS(=O)(=O)NCc1cc(F)cc(-c2nccc3[nH]c(-c4n[nH]c5ncc(-c6cncc(OCc7ccccc7)c6)cc45)cc23)c1"
  SYSTEM_UNDER_TEST: "UniProt:Q13627"
  UNIT_TEXT: "nM"
  EC50: 97

I = CN(C)Cc1cncc(-c2ccc3[nH]nc(-c4nc5c(-c6cccc(F)c6)cccc5[nH]4)c3n2)c1
II = O=C(Nc1c[nH]nc1C(=O)Nc1cncc(-c2cccc(F)c2)c1)c1cncc(OC2CCNCC2)c1
[ask] Which record shows the lower EC50: the first, I , or the second, II ? Answer format: the label of the selected item.
[reply] II

* * *

- SYSTEM_UNDER_TEST: Dual specificity protein kinase CLK3 (Homo sapiens, UniProt P49761)
- Sequence (P49761 whole entry): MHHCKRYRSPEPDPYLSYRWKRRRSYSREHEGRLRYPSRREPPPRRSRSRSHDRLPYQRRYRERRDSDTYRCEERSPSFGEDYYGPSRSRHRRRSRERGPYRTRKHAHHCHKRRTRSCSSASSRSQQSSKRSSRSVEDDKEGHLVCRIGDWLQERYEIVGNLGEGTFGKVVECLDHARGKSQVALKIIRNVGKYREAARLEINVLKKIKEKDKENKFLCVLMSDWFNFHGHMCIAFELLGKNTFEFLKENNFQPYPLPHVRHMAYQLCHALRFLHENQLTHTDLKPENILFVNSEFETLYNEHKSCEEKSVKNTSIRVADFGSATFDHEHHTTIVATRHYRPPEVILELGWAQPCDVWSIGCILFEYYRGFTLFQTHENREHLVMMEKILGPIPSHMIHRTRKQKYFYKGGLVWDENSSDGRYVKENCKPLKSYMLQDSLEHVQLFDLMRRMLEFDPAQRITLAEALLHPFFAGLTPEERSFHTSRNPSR
- PROCEDURE_SUMMARY: Inhibition of recombinant CLK3 (unknown origin) using Ser/Thr 18 peptide as substrate incubated for 1 hr in presence of ATP by FRET assay
# maps each entry to its EC50

Recorded results for 2 compounds are shown here.
- STRUCTURE: "c1cc(-c2ccnc3[nH]c(-c4n[nH]c5ccc(-c6cncnc6)cc45)cc23)ccn1"
  EC50: "> 10 µM"
- STRUCTURE: "c1cc(-c2ccnc3[nH]c(-c4n[nH]c5ccc(-c6cncc(OCCN7CCCC7)c6)nc45)cc23)ccn1"
  EC50: "> 10 µM"

Now turn to the next compound.
[ask] State, in one line, measured EC50 of "O=C(Nc1cc2cc(-c3cnco3)cnc2cn1)[C@H]1CC[C@H](CO)CC1"
[reply] > 10 µM

* * *

- PROCEDURE_SUMMARY: Effect on Wnt signaling pathway in human SW480 cells harbouring TCF/LEF luciferase reporter gene and SP5-Luc reporter gene incubated for 36 to 48 hrs by luminescence assay
- Format: cell-based
pEC50: −log10 of the molar value.
READOUT_TYPE: pEC50

Answered examples (4):
- STRUCTURE: "CN(C)c1cncc(-c2ccc3[nH]nc(-c4nc5c(-c6cccc(F)c6)cncc5[nH]4)c3n2)c1"
  TEST_VALUE: 6.20
- STRUCTURE: "CN1CCN(c2nccc3[nH]c(-c4n[nH]c5ccc(-c6cncc(NC(=O)C7CCCCC7)c6)cc45)cc23)CC1"
  TEST_VALUE: 5.28
- STRUCTURE: "c1cncc(-c2ccc3[nH]nc(-c4cc5c(-c6cccnc6)cncc5[nH]4)c3c2)c1"
  TEST_VALUE: 6.51
- STRUCTURE: "CN1CCCn2cc(nn2)-c2nccc3[nH]c(nc23)-c2n[nH]c3ccc(cc23)-c2cncc(c2)C1"
  TEST_VALUE: 6.47

I = CC(C)(C)C(=O)Nc1cncc(-c2cnc3[nH]nc(-c4nc5c(-c6ccoc6)cncc5[nH]4)c3c2)c1
II = CN(C)CCNc1cc(F)cc(-c2cccc3[nH]c(-c4n[nH]c5ccc(-c6cncc(CN7CCCCC7)c6)nc45)cc23)c1
[ask] Endpoint returns the identifier whose pEC50 is numerically larger, either I or II . Answer by quoting the chosen item's label.
[reply] I
(I: 7.15, II: 5.90)
